B1: ZNF511 (parent)
chain: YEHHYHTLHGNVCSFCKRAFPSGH

# Variants of: B1
# ASSAY_EXPLANATION: protein stability index of a GFP-peptide fusion (GPS, HEK-293T) (PSI 1-6); higher = more stable;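 note: lentivirally expressed fusions sorted by FACS into six bins by GFP to DsRed ratio, PSI derived from sequencing read proportions per bin multiplied by bin number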
# ASSAY_CONTEXT: c terminus: a fixed tail appended
Listed here: items and their measured protein stability index.
MEASURED_ENDPOINT: protein stability index

variant_code=C16N assay_result=2.12
variant_code=L8P assay_result=2.43
variant_code=L8Q assay_result=2.62
variant_code=H6F assay_result=1.48
variant_code=N11M assay_result=2.68
variant_code=H3W assay_result=2.12
variant_code=Y1T assay_result=2.75
variant_code=P21T assay_result=2.38
variant_code=H4I assay_result=1.82
variant_code=Y1W assay_result=2.07
variant_code=E2F assay_result=3.12
